target-or-test-system: T1, Siglec-9 Fc protein (human)
T1 construct: Produced in CHO cells; also called human Siglec-9 Fc
T1 sequence (chain, as listed by the source limits assumed): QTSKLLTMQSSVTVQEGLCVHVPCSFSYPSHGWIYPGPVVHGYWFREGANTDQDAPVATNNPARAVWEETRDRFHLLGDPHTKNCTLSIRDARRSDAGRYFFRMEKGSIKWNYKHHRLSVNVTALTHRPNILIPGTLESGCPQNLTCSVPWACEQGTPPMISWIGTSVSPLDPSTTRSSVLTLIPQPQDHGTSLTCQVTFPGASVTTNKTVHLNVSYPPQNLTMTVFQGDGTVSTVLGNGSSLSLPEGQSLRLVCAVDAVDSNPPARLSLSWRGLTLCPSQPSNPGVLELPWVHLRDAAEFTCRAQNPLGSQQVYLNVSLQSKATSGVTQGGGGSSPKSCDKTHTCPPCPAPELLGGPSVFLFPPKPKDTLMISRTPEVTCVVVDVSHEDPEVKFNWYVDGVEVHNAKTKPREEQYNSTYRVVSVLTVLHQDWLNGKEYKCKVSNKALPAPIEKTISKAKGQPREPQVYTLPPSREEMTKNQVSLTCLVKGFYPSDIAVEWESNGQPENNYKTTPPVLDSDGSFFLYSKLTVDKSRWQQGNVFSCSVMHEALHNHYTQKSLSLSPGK
experiment-description: SPR (Biacore T200), Fab over immobilized Siglec-9 Fc, 1:1 model
Description: SPR measurements were performed on a Biacore™ T200 apparatus (Biacore™ GE Healthcare) at 25° C. In all Biacore™ experiments HBS-EP+(Biacore™ GE Healthcare) and NaOH 10 mM served as running buffer and regeneration buffer respectively. Sensorgrams were analyzed with Biacore™ T200 Evaluation software. Human siglec-9 and -7 multimeric proteins were cloned, produced and purified at Innate Pharma. Proteins were immobilized covalently to carboxyl groups in the dextran layer on a Sensor Chip CM5. […]
Binary label based on Kd with cut-off 0.6 nM: below gives criterion met, not below gives criterion not met.

As a guide, the following entries are already answered.
Fab.B (Fab of mAbB) (Fab, V domains shown) VH: QVQLQQPGAELVKPGASVKLSCKASVYTFTSYWMHWVKQRPGQGLEWIGEINPSNGHTNYNEKFKTKAKLTVDKSSSTAYMQLSSLTSEDSAVYFCANGVETYDFDDAMDYWGQGTSVTVSS VL: DIQMTQTTSSLSASLGDRVTISCRASQDINNYLNWYQQKPDGTVKLLIYFTSRLHSGVPSRFSGSGSGTDYSLTISNLEQEDIATYFCQQGDTFPFTFGGGTKLEIK; criterion met
Fab.E (Fab of mAbE) (Fab, V domains shown) VH: DVQLVESGGGLVQPGGSRKLSCAASGFTFSTFGMHWVRQAPEKGLEWVAYISSGSNAIYYADTVKGRFTISRDNPKNTLFLQMTSLRSEDTAMYYCASPGYGAWFAYWGQGTLVTVSA VL: ENVLTQSPAIMSASPGEKVTMTCRASSSVSSAYLHWYQQKSGASPKLWIYSTSNLASGVPARFSGSGSGTSYSLTISSVEAEDAATYYCQQYSAYPYTFGGGTKLEIK; criterion not met

Query: Lab note: confirm whether the reported Kd for this binder is below 0.6 nM, equality not counting. binder: Fab.C (Fab of mAbC) (Fab, V domains shown) VH: QIQLVQSGPELKKPGETVKISCKASGYTFTNYEMNWVKEAPGKGLKWMGWINTYTGESTYADDFKGRFAFSLETSASTVYLQINNLKDEDVATYFCVRDDYGRSYGFAYWGQGTLVTVSA VL: NIVLTQSPASLTVSLGQRANISCRASESVDSYGNSFMHWYQQKPGQPPKLLIYLASKLESGVPARFSGSGSRTDFTLTIDPVETDDAATYYCHQNNEDPPWTFGGGTKLEIK
Result: criterion met

Query: is_below(Kd, 0.6 nM) for Fab1 (Fab of mAb1) (Fab, V domains shown) VH: DVQLQESGPGLVKPSQSLSLTCTVTGYSITGGFAWNWIRQFPGNTLEWMGYIGYGGSTSYNPSLNSRISITRDTSKNHFFLQFNSVTTDDSATYYCARGDYLFAYWGQGTLVTVSA VL: DIVMTQSHKFMSTSVGDRVSITCKASQDVNTAVAWYQQKPGQSPKLLIYSASYRYTGVPDRFTGSGSGTDFTFTISSVQAEDLAVYYCQQHYSTPRTFGGGTKLEIK ?
Result: criterion met

Query: Criterion: Kd strictly below 0.6 nM. Is it met by Fab2 (Fab of mAb2) (Fab, V domains shown, Fab fragment of the antibody) VH: EVQLQESGPGLVKPSQSLSLTCTVTGYSITGGFAWNWIRQFPGNTLEWMGYIGYGGSTSYNPSLNSRISITRDTSKNHFFLQFNSVTTEDSATYYCARGDYLFAYWGQGTLVTVSA VL: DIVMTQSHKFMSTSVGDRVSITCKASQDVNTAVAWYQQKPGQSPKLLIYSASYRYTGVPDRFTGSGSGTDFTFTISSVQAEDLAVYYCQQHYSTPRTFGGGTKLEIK ?
Result: criterion not met

Query: # check: Kd < 0.6 nM for Fab.F (Fab of mAbF) (Fab, V domains shown) VH: QVQLQQSGPEVVRPGVSVKISCKGSGYTFTDYSMHWVKQSHAKSLEWIGVISTYNGNTNYNQKFKGKATMTVDKSSSTAYMELARLTSEDSAIYYCARRGYYGSSSWFGYWGQGTLVTVSA VL: DIVMTQSQKFMSTSVGDRVSVTCKASQNVGTDVAWYQQKPGQSPEALIYSASYRYSGVPDRFTGSGSGADFTLTISNVQSEDLAEYFCQQYNSFPYTFGGGTKLEIK
Result: criterion not met
